ASSAYED_TARGET: wild type K-Ras (Homo sapiens, UniProt P01116)
Construct: human K-Ras (wildtype, aa 1-169); 6xHis tag + TEV cleavage site (N, cleaved yes); made in house; host or cells: E. coli BL21(DE3)
MEASUREMENT_NOTES: Covalent modification of recombinant wild-type K-Ras by whole-protein mass spectrometry
Assay type: binding
CONDITION: 24-h incubation, 100 μM compound, 23° C., pH 7.5
RECORDED_METRIC: % covalent modification of wild type K-Ras (%)

compound="N#CC[C@H]1CN(c2nc(OCC34CCCN3CCC4)nc3c(F)c(-c4cccc5cccc(Cl)c45)ncc23)CCN1C(=O)C1CC(=O)O1 (stereo partly shown)" value_reported=0
compound="O=C1CC(C(=O)N2[C@@H]3CC[C@H]2CN(c2nc(OCC45CCCN4CCC5)nc4c(F)c(-c5cccc6cccc(Cl)c56)ncc24)C3)O1 (stereo partly shown)" value_reported=22.0
compound=CN1CCC[C@@H]1COc1nc2c(c(N3CCC4(CC3)CC(=O)O4)n1)CCN(c1cccc3cccc(Cl)c13)C2 value_reported=0

(P) CN1CCC[C@@H]1COc1nc2c(c(N3CCC4(CC3)CNC4=O)n1)CCN(c1cccc3cccc(Cl)c13)C2
(Q) CC1(c2cc(NCC(=O)N3CC[C@H]4OC(=O)[C@H]4C3)c(O)cc2Cl)CC1
Incoming: Could you check which of P and Q has a smaller value for % covalent modification of wild type K-Ras? Answer format: the label of the selected item.
Outgoing: P
(P: 0%, Q: 8.0%)

* * *

ASSAYED_TARGET: K-Ras(G12S) (Homo sapiens, UniProt P01116, G12S)
MEASUREMENT_NOTES: Covalent modification of recombinant K-Ras(G12S) by whole-protein mass spectrometry
Format: binding
Design: human K-Ras (G12S, aa 1-169); 6xHis tag + TEV cleavage site (N, cleaved yes); made in house; host or cells: E. coli BL21(DE3)
CONDITION: 24-h incubation, 100 μM compound, 23° C., pH 7.5
Experimental: Test compounds were prepared as 100× stock solutions in DMSO. K-Ras proteins were diluted with SEC Buffer (20 mM HEPES 7.5, 150 mM NaCl, 1 mM MgCl2) to 400 nM or 1 μM. In a typical reaction, 0.5 μL 100× compound stock was mixed with 50 μL diluted K-Ras protein, and the resulting mixture was incubated for the desired amount of time. The extent of modification was assessed by electrospray mass spectrometry using a Waters Xevo G2-XS system equipped with an Acquity UPLC BEH C4 1.7 μm column. […]
RECORDED_METRIC: % covalent modification of K-Ras G12S (%)

Recorded % covalent modification of K-Ras G12S, per entry:
compound=CN1CCC[C@@H]1COc1nc2c(c(N3CCN4C(=O)C[C@H]4C3)n1)CCN(c1cccc3cccc(Cl)c13)C2 assayed_target="K-Ras(G12S) (Homo sapiens, UniProt P01116, G12S)" value_reported=0
compound=CN1CCC[C@@H]1COc1nc2c(c(N3CCC4(CC3)COC4=O)n1)CCN(c1cccc3cccc(Cl)c13)C2 assayed_target="K-Ras(G12S) (Homo sapiens, UniProt P01116, G12S)" value_reported=72.1
compound=O=C1OCC12CCN(c1nc(OCC34CCCN3CCC4)nc3c1CCN(c1cccc4cccc(Cl)c14)C3)CC2 assayed_target="K-Ras(G12S) (Homo sapiens, UniProt P01116, G12S)" value_reported=92.8

(A) CN1CCC[C@@H]1COc1nc2c(c(N3CCC4(CC3)CN(S(=O)(=O)O)C4=O)n1)CCN(c1cccc3cccc(Cl)c13)C2
(B) O=C1O[C@H]2CN(c3nc(OCC45CCCN4CCC5)nc4c3CCN(c3cccc5cccc(Cl)c35)C4)CC[C@@H]12
Incoming: Hi, I'm comparing A with B and wondering which one has the bigger number for % covalent modification of K-Ras G12S. Any idea? Answer format: the label of the selected item.
Outgoing: B
(B: 100%, A: 0%)

Attribution: patent US20250059187A1
